test system: 377384-186-R-J1-PDC complex spheroid viability; experiment: Anticancer human tumor 377384-186-R-J1-PDC patient-derived pancreatic carcinoma cell line growth inhibition [CLK]; details: second compound 0.316 µM; first compound 3.16 µM; hits give low values
measure: viability, T/C

molecule | measure | test-result
O=c1[nH]cc(F)c(=O)[nH]1 + CN1CCN(c2cc(C(=O)Nc3cc4cc(-c5cnn(C)c5)ccc4cn3)ccn2)CC1 | viability, T/C | 28.3%

====

test system: 377384-186-R-J1-PDC complex spheroid viability; test: Anticancer human tumor 377384-186-R-J1-PDC cell line growth inhibition [CLK]; settings: second compound 3.16 µM; first compound 1 µM; hits give low values;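 also: luminescence signal used as a stand-in for viable cells; spheroids exposed to agents for 7 days before reading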
measure: viability, T/C (%)

molecule | target | units-text | test-result
COc1cccc2c1C(=O)c1c(O)c3c(c(O)c1C2=O)CC(O)(C(=O)CO)CC3OC1CC(N)C(O)C(C)O1 (stereo unspecified) + CN1CCN(c2cc(C(=O)Nc3cc4cc(-c5cnn(C)c5)ccc4cn3)ccn2)CC1 | 377384-186-R-J1-PDC complex spheroid viability | % | 1.45
C#Cc1c(F)ccc2cc(O)cc(-c3ncc4c(N5CC6CCC(C5)N6)nc(OCC56CCCN5CC(F)C6)nc4c3F)c12 (stereo unspecified) + CNC(=O)c1ccc(Nc2nc(OC3CCCC3)c3c(-c4ccc5nc(C)oc5c4)c[nH]c3n2)c(OC)c1 | 377384-186-R-J1-PDC complex spheroid viability | % | 2.25
Nc1ccccc1NC(=O)c1ccc(CNC(=O)OCc2cccnc2)cc1 + CNC(=O)c1ccc(Nc2nc(OC3CCCC3)c3c(-c4ccc5nc(C)oc5c4)c[nH]c3n2)c(OC)c1 | 377384-186-R-J1-PDC complex spheroid viability | % | 16.9
CC(Nc1ccc2c(c1)OCCn1cc(N3C(=O)OCC3C(F)F)nc1-2)C(N)=O (stereo unspecified) + CN1CCN(c2cc(C(=O)Nc3cc4cc(-c5cnn(C)c5)ccc4cn3)ccn2)CC1 | 377384-186-R-J1-PDC complex spheroid viability | % | 0.3
CCN1CCN(Cc2ccc(Nc3ncc(F)c(-c4cc(F)c5nc(C)n(C(C)C)c5c4)n3)nc2)CC1 + CNC(=O)c1ccc(Nc2nc(OC3CCCC3)c3c(-c4ccc5nc(C)oc5c4)c[nH]c3n2)c(OC)c1 | 377384-186-R-J1-PDC complex spheroid viability | % | 18.7
COc1ccc([C@@H](O)c2cc(-c3ncnc4cc(N5CCOCC5)ccc34)c(F)cc2Cl)nn1 + CN1CCN(c2cc(C(=O)Nc3cc4cc(-c5cnn(C)c5)ccc4cn3)ccn2)CC1 | 377384-186-R-J1-PDC complex spheroid viability | % | 0.36
Nc1ccn(C2OC(CO)C(O)C2(F)F)c(=O)n1 (stereo unspecified) + CN1CCN(c2cc(C(=O)Nc3cc4cc(-c5cnn(C)c5)ccc4cn3)ccn2)CC1 | 377384-186-R-J1-PDC complex spheroid viability | % | 0.2
CCc1c2c(nc3ccc(O)cc13)-c1cc3c(c(=O)n1C2)COC(=O)[C@]3(O)CC + CN1CCN(c2cc(C(=O)Nc3cc4cc(-c5cnn(C)c5)ccc4cn3)ccn2)CC1 | 377384-186-R-J1-PDC complex spheroid viability | % | 0.85
O=C(c1cc(Cc2n[nH]c(=O)c3ccccc23)ccc1F)N1CCN(C(=O)C2CC2)CC1 + CN1CCN(c2cc(C(=O)Nc3cc4cc(-c5cnn(C)c5)ccc4cn3)ccn2)CC1 | 377384-186-R-J1-PDC complex spheroid viability | % | 0.45
CC(Nc1ccc2c(c1)OCCn1cc(N3C(=O)OCC3C(F)F)nc1-2)C(N)=O (stereo unspecified) + CNC(=O)c1ccc(Nc2nc(OC3CCCC3)c3c(-c4ccc5nc(C)oc5c4)c[nH]c3n2)c(OC)c1 | 377384-186-R-J1-PDC complex spheroid viability | % | 14.2
CC1(C)CCC(CN2CCN(c3ccc(C(=O)NS(=O)(=O)c4ccc(NCC5CCOCC5)c([N+](=O)[O-])c4)c(Oc4cnc5[nH]ccc5c4)c3)CC2)=C(c2ccc(Cl)cc2)C1 + CN1CCN(c2cc(C(=O)Nc3cc4cc(-c5cnn(C)c5)ccc4cn3)ccn2)CC1 | 377384-186-R-J1-PDC complex spheroid viability | % | 0.54
